These entries and their values trace back to paper PMC12179625.

- experiment: Pharmacokinetics / TDM of CMS and colistin in patient plasma
- Type: in vivo, human
- experimental-parameters: human, in vivo, iv, 150 mg CBA, patients on CMS infusion (300 mg CBA loading, 150 mg CBA maintenance), fourth dose; plasma, SPE LC-MS/MS; DAS 2.0; mean ± SD of 3 patients; SD; read-out: AUC0-24h
Where a SMILES comes first, the peptide text is derived from it. Bridges are numbered along the chain shown (N, C = ends). [ ]: non-standard residue; d: D form. The star is where a group is joined. X1 = CC[C@H](C)CCCCC(=O)*; Dab = NCC[C@H](N)C(=O)O
measured-property: AUC(0-t) (ng·h/mL)
Answer in ng·h/mL, number only, no unit symbol.

[in] Recorded AUC(0-t) of CC[C@H](C)CCCCC(=O)N[C@@H](CCN)C(=O)N[C@H](C(=O)N[C@@H](CCN)C(=O)N[C@H]1CCNC(=O)[C@H]([C@@H](C)O)NC(=O)[C@H](CCN)NC(=O)[C@H](CCN)NC(=O)[C@H](CC(C)C)NC(=O)[C@@H](CC(C)C)NC(=O)[C@H](CCN)NC1=O)[C@@H](C)O [Colistin, colistin] (X1-[Dab]T[Dab][Dab][Dab][dL]L[Dab][Dab]T; lactam 4-C) , please.
[out] 53400
